target: T1, human Sdc2 (human, UniProt P34741 19-144, limits assumed); experiment: Octet tandem binning; saturating Ab f11 19838-20-H19-A
T1 construct: Antigen of the Octet tandem binning, loaded on biosensors at 100 nM; also called huSdc2; hSdc2
T1 sequence (P34741 19-144 limits assumed): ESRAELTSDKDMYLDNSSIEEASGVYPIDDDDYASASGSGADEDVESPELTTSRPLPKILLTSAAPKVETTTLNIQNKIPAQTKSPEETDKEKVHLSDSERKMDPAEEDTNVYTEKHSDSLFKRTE
Some binders, each annotated with its measured raw competing-Ab binding signal.
measured metric: raw competing-Ab binding signal

1) R3-P3-E09 (antibody, human IgG1, kappa, V domains shown, human IgG1 kappa from the phage campaign) VH: EVQLVETGGGVVQPGRSLTLSCGASEFTFSNYAMHWVRQAPGKGLEWVAVISYDGTKKYYGDSVKGRFTISRENIKNTLYLQMNSLRSEDTAVYYCARDVGKGVTATGTFDIWGQGTMVTVSS VL: AIRMTQSPSSLSASVGDRVTITCRASQGIGSYLAWFQQKPGEAPKSLIIDATRLKSGVPSRFSGSGSGTEFALTISSLRPEDFATYYCQQYNVSPLTFGGGTKVEIKR
0.337
2) R4M-P3-A12 (antibody, human IgG1, kappa, V domains shown) VH: EVQLVESGGGVVQPGGSLRLSCAASGFTFSDHYMSWIRQAPGKGLEWVSYLSGSGTSIYYADSVKGRFTISRDNAKKSLYLQMNSLRAEDTAVYYCARVGPAAGNAFDIWGQGTMVTVSS VL: QSVLTQPPSASGTPGQRVTISCSGSSSNIGSNYVYWYQQLPGTAPKLLIYRNNQRPSGVPDRFSGSKSGTSASLAITGLQAEDEADYYCQSYDSSLSGVVFGGGTKLTVLR
0.165
